Recorded values, source PubChem BioAssay (NCATS).

- protocol-summary: qHTS for Inhibitors of the Functional Ribonucleoprotein Complex (vRNP) of Lassa (LASV) Arenavirus: Viability assay - alamar blue signal for LASV Primary Screen (AID 1347083); also: % is scaled to controls: 0 for no effect and ±100 for the full control effect; nearly all actives have a fitted effect of over 80% in size
- measurement-conditions: cell viability, alamar blue fluorescence (LASV minigenome counter-screen); series mostly up to 57.5 µM
Inconclusive results are not listed. Active and inactive are the calls of the source. Calls follow the shape of the full dose curve; tested in HEK293 reporter line.
measurement-name: activity change, negative = reduced viability

Parameter requested: activity change, negative = reduced viability. Apply to each item below.
1. CCCCC[C@H](O)/C=C/[C@H]1OC(=O)C[C@H](O)[C@@H]1C/C=C\CCCC(=O)O
2. CCCCC/C=C\C/C=C\C/C=C\C=C\C(O)CCCC(=O)O (centres undefined)

["8.43% [at 5.82 µM] (inactive)", "7.65% [at 0.757 µM] (inactive)"]

For every record below, what is its activity change, negative = reduced viability?
1. CCCCC/C=C\C[C@@H]1O[C@H]1C(O)/C=C\C/C=C\CCCC(=O)O (some centres undefined)
2. CCCCC[C@H](O)/C=C/C=C\C/C=C\C=C\[C@@H](O)CCCC(=O)O
3. CCCCC/C=C\C\C=C/C=C/C=C/[C@@H](O)[C@@H](O)CCCC(=O)O
4. C[C@@H](O)CCC[C@H](O)/C=C/[C@H]1[C@H](O)CC(=O)[C@@H]1C/C=C\CCCC(=O)O
5. CCCCC/C=C\C/C=C\C/C=C\CCCCCCC(=O)O[C@H](COCCCCCCCCCCCCCCCC)COP(=O)([O-])OCC[N+](C)(C)C
6. CCCCC/C=C\C[C@@H]1O[C@H]1/C=C/C(O)C/C=C\CCCC(=O)O (some centres undefined)
7. CC/C=C\C/C=C\C/C=C\C/C=C\C=C\C(O)CCCC(=O)O (centres undefined)

5.76% [at 0.757 µM] (inactive)
18.4% [at 0.757 µM] (inactive)
14.4% [at 0.757 µM] (inactive)
-134% [at 5.82 µM] (inactive)
4.54% [at 5.82 µM] (inactive)
11.9% [at 0.757 µM] (inactive)
9.64% [at 0.757 µM] (inactive)

* * *

- System: P94_40
- protocol-summary: qHTS profiling for inhibitors of Plasmodium falciparum proliferation (AID 504749); also: nearly all actives have a fitted effect of over 60% in size
- measurement-conditions: P. falciparum in erythrocytes, SYBR Green DNA, 72 h; series mostly up to 28.7 µM
Inconclusive results are not listed. The source made the active and inactive calls. Calls follow the shape of the dose curve; as a rule, active = well fitted inhibition curve with a large enough effect; inconclusive = small, poorly fitted or top-dose-only effect; inactive = flat fitted curve, though single readings scatter.
Outcome (select one): true for active, false for inactive

Some solved entries appear below for comparison.
compound	classification
C[N+](C)(C)CC(=O)[O-]	false
CCCCCCCCCC[N+](C)(C)CCCCCCCCCC	true
O=C(O)c1ccccc1-c1c2cc(Br)c(=O)cc-2oc2[c]([Hg])c(O)c(Br)cc12	false
CCN1C[C@]2(COC)[C@H](O)C[C@H](OC)[C@]34C1C([C@H](OC)[C@H]23)[C@]1(OC(C)=O)C2[C@@H](OC(=O)c3ccccc3)C(O)(C[C@H]24)[C@@H](OC)[C@@H]1O	false
CO[C@H]1[C@@H](O)CC(OC2[C@@H](O)CC(OC3[C@@H](O)C[C@H](OC4CC[C@@]5(C)C(CCC6C5CC(O)[C@]5(C)[C@H](C7=CC(=O)OC7)CCC65O)C4)O[C@@H]3C)O[C@@H]2C)O[C@@H]1C (stereo partly specified)	false

Continue with the compound presented below.
Name the outcome recorded for `CCN(CC)CCO[C@H]1CC[C@@]2(C)C(=CC[C@@H]3[C@H]2CC[C@]2(C)C(=O)CC[C@H]32)C1` in the assay.
false

* * *

- test-system: Calcium and integrin-binding protein 1 (Homo sapiens) (UniProt Q99828)
- Sequence (Q99828 whole entry, looked up): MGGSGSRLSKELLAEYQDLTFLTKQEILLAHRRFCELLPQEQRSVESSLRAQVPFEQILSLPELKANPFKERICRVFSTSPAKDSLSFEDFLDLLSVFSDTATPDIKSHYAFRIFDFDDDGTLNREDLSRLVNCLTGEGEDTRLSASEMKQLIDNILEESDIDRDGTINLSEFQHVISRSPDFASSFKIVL
- protocol-summary: Primary qHTS for Identification of Calcium Integrin Binding Protein 1 (CIB1) Competitor (AID 1508620);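 also: GST tagged CIB1 binding a fluorescein labelled alphaIIb integrin peptide tracer; top concentration of the series differs between compounds; % is scaled to controls: 0 for no effect and ±100 for the full control effect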
- measurement-conditions: CIB1-GST / FITC-alphaIIb peptide fluorescence polarization; series mostly up to 114 µM
Inconclusive results are not listed. Activity calls are given as the source filed them. Calls follow the shape of the dose curve; as a rule, active = well fitted inhibition curve with a large enough effect; inconclusive = small, poorly fitted or top-dose-only effect; inactive = flat fitted curve, though single readings scatter.
measurement-name: activity change, negative = inhibition

molecule	measurement-name	assay-value
CO[C@H]1[C@H](O)[C@H](O[C@H]2CC[C@]3(C=O)C4CC[C@]5(C)[C@H](C6=CC(=O)OC6)CC[C@]5(O)C4CC[C@@H]3C2)O[C@@H](C)[C@@H]1O (stereo not given in full)	activity change, negative = inhibition	inactive
C#CCO[C@H]1CN2CCC1CC2	activity change, negative = inhibition	inactive
C[C@@H]1C[C@@H](O)[C@]2(O)O[C@@H]3C[C@@]4(C=O)C(CC[C@@H]5C4CC[C@]4(C)[C@@](O)(C6=CC(=O)OC6)CC[C@]54O)C[C@H]3OC2O1 (stereo not given in full)	activity change, negative = inhibition	inactive
COc1cc(O)c2c(c1)/C=C/C[C@@H](O)[C@@H](O)C(=O)CCC[C@H](C)OC2=O	activity change, negative = inhibition	inactive

Please look at the following molecule next.
Can you share its activity change, negative = inhibition? I mean this molecule: COC1CC(O[C@H]2CC[C@]3(C)C4CC[C@]5(C)[C@@H](C6=CC(=O)OC6)[C@@H](OC(C)=O)C[C@]5(O)C4CC[C@@H]3C2)OC(C)C1O[C@@H]1O[C@H](CO)[C@@H](O)[C@H](O)[C@H]1O (stereo not given in full)
inactive

* * *

- Test system: Zika virus NS2B-NS3 protease (unlinked complex)
- protocol-summary: Primary screen GU Rhodamine qHTS for Zika virus inhibitors: Unlinked NS2B-NS3 protease assay (AID 1347159); also: nearly all actives have a fitted effect of over 60% in size
- measurement-conditions: Recombinant ZIKV NS2B-NS3 protease, Rhodamine110 substrate fluorescence; series mostly up to 107 µM
Inconclusive results are not listed. Activity calls are given as the source filed them. The call rests on the fitted dose curve; in most records, active means well fitted inhibition curve with a large enough effect; inconclusive means small, poorly fitted or top-dose-only effect; inactive means no such curve, though single readings can be large or run the other way.
Respond only with the outcome that fits, drawn from active, inactive

compound	test-system	classification
c1ccc([C@@H]2C[C@H]2NC2CCNCC2)cc1	Zika virus NS2B-NS3 protease (unlinked complex)	inactive
CC[C@H](O)[C@@H](C)[C@H]1O[C@@H]1C[C@H](C)/C=C/C=C(\C)[C@H]1OC(=O)C[C@H](O)CC[C@@](C)(O)[C@@H](OC(C)=O)/C=C/[C@@H]1C	Zika virus NS2B-NS3 protease (unlinked complex)	inactive
Cc1cccc(NC(=O)N[C@H]2CN(C)c3ccccc3C(c3ccccc3)=N2)c1	Zika virus NS2B-NS3 protease (unlinked complex)	inactive
Cc1sc2c(c1C)C(c1ccc(Cl)cc1)=N[C@@H](CC(N)=O)c1nnc(C)n1-2	Zika virus NS2B-NS3 protease (unlinked complex)	inactive
C=CCN1CC[C@]23c4c5ccc(O)c4O[C@H]2[C@@H](O)CC[C@@]3(O)[C@H]1C5	Zika virus NS2B-NS3 protease (unlinked complex)	inactive
CN1CCN(c2nc3ccccc3nc2Cl)CC1	Zika virus NS2B-NS3 protease (unlinked complex)	inactive
C/C=C(\C)C(=O)OC1CC2C(CC=C3CC(OC4CC(OC)C(OC5CC(OC)C(OC6CC(OC)C(OC7CC(OC)C(O)C(C)O7)C(C)O6)C(C)O5)C(C)O4)CCC32C)C2(O)CCC(C(C)=O)C12C (centres undefined)	Zika virus NS2B-NS3 protease (unlinked complex)	inactive
C[C@@H]1O[C@@H](O[C@H]2CC[C@@]3(C)C(CC[C@@H]4C3CC[C@]3(C)[C@@H](C5=CC(=O)OC5)CC[C@]43O)C2)[C@H](O[C@@H]2O[C@H](CO)[C@@H](O)[C@H](O)[C@H]2O)[C@H](O)[C@H]1O (some centres undefined)	Zika virus NS2B-NS3 protease (unlinked complex)	inactive
C/C(=C\c1csc(C)n1)[C@@H]1C[C@@H]2O[C@@H]2CCC[C@H](C)[C@H](O)[C@@H](C)C(=O)C(C)(C)[C@@H](O)CC(=O)O1	Zika virus NS2B-NS3 protease (unlinked complex)	inactive
CO[C@@H]1[C@@H](O)[C@@H](O[C@H]2CC[C@]3(C=O)C4CC[C@]5(C)[C@@H](C6=CC(=O)OC6)CC[C@]5(O)[C@@H]4CC[C@H]3C2)O[C@@H](C)[C@H]1O[C@@H]1O[C@H](CO[C@@H]2O[C@H](CO)[C@@H](O)[C@H](O)[C@H]2O)[C@@H](O)[C@H](O)[C@H]1O (some centres undefined)	Zika virus NS2B-NS3 protease (unlinked complex)	inactive

GET /call?item= COC(=O)[C@]12CCCC(C)(C)C1CCc1cc(C(C)C)c(O)c(O)c12 (some centres undefined) returns the recorded outcome of this test.
active

Recorded call for C=C1[C@@H](C)C2[C@H](Cc3ccccc3)NC(=O)[C@@]23C(/C=C/C[C@H](C)C[C@@](C)(O)/C=C/[C@@H]3OC(C)=O)[C@@H]1O (some centres undefined) ?
inactive

In this assay, the call recorded for Fc1cc(F)c2c(c1)[C@H]1C=CC[C@H]1C(c1cccnc1)N2 (some centres undefined) was what?
inactive

Call for entry `CC(C)(C)[C@]1(O)C[C@@H]2OC(=O)C[C@@]23C(=O)O[C@@H]2OC(=O)[C@@H](O)[C@]213` :
inactive

Please share the test call associated with `CC1=C[C@H]2O[C@@H]3C[C@H]4OC(=O)/C=C/C=C/C(=O)OCC/C(C)=C/C(=O)OC[C@@]2(CC1)[C@]4(C)[C@]31CO1` .
inactive
